experimental.endpoint: melting point

compound | melting point
CCCc1nn(C)c2c(=O)[nH]c(Cc3ccc(NC(=O)/C=C/OCC)cc3)nc12 | 241 to 243 °C
O=C(O)[C@H](Cc1ccc(C(F)(F)F)cc1)[C@@H](O)c1ccc(F)c(F)c1 (racemic) | 76 to 77 °C
O=C(CNc1ccc2[nH]c(=O)oc2c1)N1CCC(Oc2ccc(Cl)cc2)CC1 | 180 to 183 °C
COc1ccc(C2CSc3ccccc3N(CCO)C2=O)cc1 (stereo unspecified) | 133 °C
O=C(Oc1ccccc1O)c1cc(Br)c(Cl)s1 | 145 to 147 °C
CC(C(=O)O)c1ccc2c(=O)c3ccccc3ccc2c1 (stereo unspecified) | 108 to 110 °C
CCCCCC(=O)OC(C)c1ccc(-c2ccc(C(=O)O)cc2)cc1 (single isomer, unassigned; (+)) | 133 to 135 °C
CCc1c(N)cccc1NC(=O)OC(C)(C)C | 109 to 110 °C

Now consider a different compound.
Input `CCOC(=O)c1c(CN(CC)CC)nc2sc3c(c2c1-c1ccc(OC)c(OC)c1)CCN(C(=O)c1ccc(Cl)cc1)C3` . Output melting point: 96 to 98 °C

====

Item-by-item account of melting point

Some compounds with known melting point results, for comparison:
compound | melting point
Nc1ccc2c(c1)c(-c1ccc(CO)o1)nn2Cc1ccccc1 | 156 °C
O=C1c2ccccc2C(=O)N1OS(=O)(=O)c1ccc2ccccc2c1 | 223 to 225 °C
CC(C)(C)c1cc(-n2nc3ccc(Cl)cc3n2)c(O)c(C(C)(C)c2ccc(Cl)cc2)c1 | 130 to 131 °C
CN1CCCC1=NC(=O)Nc1c(Cl)cc(Cl)cc1Cl | 160 to 162 °C
COc1cccc(-c2nc(-c3ccccc3COC(=O)c3ccccc3)n[nH]2)c1 | 128 to 130 °C
CC(C)c1ccc(NC(=O)Cn2cnc3[nH]c(=O)[nH]c(=O)c32)cc1 | 320 to 325 °C
CCOc1ccccc1CNc1nc(N)n2nc(-c3ccco3)nc2n1 | 243 to 246 °C
N#Cc1cccc(-c2cccs2)n1 | 88.2 to 88.6 °C
O=c1c(N2CCCNCC2)nc2cc(F)ccc2n1-c1ccccc1 | 151 to 152 °C
COc1cc(/C=C/C(=O)/C=C/c2ccc(O)c(OC)c2)ccc1O | 82 to 83 °C

Input `c1ccc(-c2n[nH]c3c2Cc2ccccc2-3)cc1` . Output melting point: 234 to 236 °C

Input `O=C(O)CNS(=O)(=O)c1cc2ccc(Cl)cc2cc1Cl` . Output melting point: 185 to 188 °C

Input `Nc1ccc(N2C(=O)c3cccc([N+](=O)[O-])c3C2=O)cc1` . Output melting point: 177 °C

Input `CNC(=S)N(C)c1cncc(C(F)(F)F)c1` . Output melting point: 86 to 90 °C

Input O=C1CCC(N2C(=O)c3cccc(OCc4ccc(CN5CCOCC5)cc4)c3C2=O)C(=O)N1 (centres undefined) . Output melting point: 205 to 207 °C

Input `Cc1cccc2c1N(CCN(C(C)C)C(C)C)C(=O)C2=O` . Output melting point: 92 to 93 °C

Input Cc1nc2c3c(ccc2n1C)C(=O)CC(c1ccccc1)O3 (centres undefined) . Output melting point: 201 to 202 °C

Input `Cc1cc(-c2ccc(C(F)(F)F)cc2)cc(-c2cccc(-c3cccc(S(=O)(=O)NC(=O)C(C)C)c3)n2)n1` . Output melting point: 190 °C

Input `Cc1cccnc1C=CCN1CCc2nc(N)sc2CC1` . Output melting point: 188 to 190 °C

Input `Cc1ccc(S(=O)(=O)ON2C(=O)c3ccc(C(=O)Cl)cc3C2=O)cc1` . Output melting point: 131 to 133 °C

Input `COc1cc2c(Nc3cccc(C)c3)ncnc2cc1OCCN1CCOCC1` . Output melting point: 168 to 170 °C

Input `CN(C)C(=O)CC(N)=S` . Output melting point: 111 to 114 °C

Input `CCOC(=O)CCNC(=O)N1CCc2cc(S(=O)(=O)N3CCN(c4cccc(Cl)c4)CC3)ccc21` . Output melting point: 162 °C

Input `COC(=O)Cn1c(C(=O)Nc2nc(-c3cc(OC)ccc3OC)c(CC3CCCCC3)s2)cc2cc(C)cc(C)c21` . Output melting point: 89 to 92 °C

====

Item-by-item account of melting point

compound | experimental.endpoint | recorded.measurement
Cc1cccc(N2CCN(CCCCc3ccc(C4CCC(=O)N4)cc3)CC2)c1 (centres undefined) | melting point | 114 to 116 °C
CCOC(=O)C(=O)c1csc(NC(=O)Nc2ccccc2F)n1 | melting point | 219 to 225 °C
O=C(c1ccccc1NCc1ccncc1)[NH+]([O-])c1cc2ccccc2cn1 (centres undefined) | melting point | 212 °C

Now consider a different compound.
Input `Cc1nc(-n2ccc(OCCC3CC3)cc2=O)sc1C(=O)NCc1ccc(F)cc1` . Output melting point: 172 to 174 °C

====

Item-by-item account of melting point

compound | melting point
CC(C)=CCn1nc(C(=O)c2cccc(O)c2)c2ccccc21 | 92 to 94 °C
CC(C)(C1OCCO1)C(O)(COc1ccc(F)cc1)Cn1cncn1 (stereo not given) | 102 to 104 °C
CC(=O)OCC(C)(C)CS(N)(=O)=O | 106 to 109 °C
COc1cc(C(=O)C(Br)Br)cc(OC)c1OC | 67 to 68 °C
O=C(O)C1=Cc2cc(C(=O)Cc3ccccc3)ccc2OC1C(F)(F)F (stereo not given) | 159 to 164 °C
CC(=O)OC1CSC(Oc2cccnc2[N+](=O)[O-])C(OC(C)=O)C1OC(C)=O (stereo not given) | 178 °C
CCCc1c(OCc2ccccc2)ccc2c(C)c(C(=O)c3ccc(OC)cc3)oc12 | 105 to 106 °C
CCCCCCC(=N)NC(=S)Nc1ccccc1Cl | 75 to 77 °C

Input `CCOP(=O)(CC(=O)Nc1cc2c(Nc3ccc(OCc4cccc(Cl)c4)c(Cl)c3)ncnc2cn1)OCC` . Output melting point: 106 to 109 °C

Input CN(C)C=NS(=O)(=O)c1cc(C(=O)c2cc3c(c(Cl)c2Cl)OC(CO)C3)ccc1Cl (stereo not given) . Output melting point: 180 to 182 °C

====

experimental.endpoint: melting point

Some compounds with known melting point results, for comparison:
compound | melting point
O=C(Nc1nccs1)C(=O)c1cn(Cc2ccc(F)cc2)c2ccccc12 | 233 to 237 °C
C[C@H](NC(=O)Cc1cc(F)cc(F)c1)C(=O)N[C@@H]1C(=O)NCCS[C@@H]1c1ccccc1 | 128 to 133 °C
C=Cc1cc(CC(=O)O)ccc1OCc1ccc2ccccc2n1 | 173 °C
CC(C)(C)C1(C(F)n2cncn2)CO1 (stereo unspecified) | 72 to 74 °C
COC(=O)c1[nH]c2c(C)ccc(C)c2c1Br | 173 to 174 °C

Input CCOC(=O)C1=C(C)NC(CSCCOC(C)=O)=C(C(=O)OCC)C1c1cccc([N+](=O)[O-])c1 (stereo unspecified) . Output melting point: 84 to 86 °C

====

experimental.endpoint: melting point

compound | experimental.endpoint | recorded.measurement
COc1ccc(-c2ocnc2-c2cc(OC)c(OC(F)(F)F)c(OC)c2)cc1N | melting point | 168 to 170 °C
CC(C)(C)c1nc2cc(N3CCN(S(C)(=O)=O)CC3)c([N+](=O)[O-])cc2s1 | melting point | 195 to 197 °C
C=Cn1cc(C(=O)O)c(=O)c2cc(F)c(N3CCC(N)C3)nc21 (stereo unspecified) | melting point | 253 to 257 °C
CN(C)C(=S)C1(c2ccccn2)CCCS1 (stereo unspecified) | melting point | 100 °C
O=C(c1ccccc1)c1ccc2nc(-c3c[nH]c(C(=O)N4CCCC4)c3)[nH]c2c1 | melting point | 160 to 162 °C

Now consider a different compound.
Input `CNc1ccc(C)cc1C(=O)Cc1nnnn1C` . Output melting point: 141 to 143 °C

====

experimental.endpoint: melting point

molecule | recorded.measurement
COCCOc1ccc(/C=C/C2(O)CN3CCC2CC3)cc1 (configuration not stated) | 164 to 166 °C
CCOC(=O)C1=C(N)NC(C)=CC1c1ccccc1 (configuration not stated) | 150 °C
Cc1cc(C(F)(F)F)cc(=O)n1C | 80 to 82 °C
O=C(NCCCCCCOC(=O)Oc1ccc([N+](=O)[O-])cc1)OC1CCN(C(=O)Oc2ccc(Oc3ccccc3)cc2)CC1 | 117 to 120 °C
CCCCS(=O)(=O)Nc1ccc(OCc2ccc3ccccc3n2)cc1 | 113 °C

Input CCN1CC(=O)Nc2cc(NC3(C(N)=O)CC4CC3C=C4Cl)c(OC)cc2C1 (configuration not stated) . Output melting point: 154 to 156 °C

Input `CC(C)[C@H](OCc1ccccc1)[C@H]1[C@H]([N+](=O)[O-])[C@H](c2ccccc2)N[C@@H]1C(=O)NCC(=O)O` . Output melting point: 71 to 72 °C

Input `CCOc1nc(N)nc(OC(F)(F)F)n1` . Output melting point: 69 to 71 °C

Input `CC[C@@]12C[C@@](C)(O)[C@](O)(c3ccccc3)C[C@H]1CCc1cc(OCc3nnn[nH]3)ccc12` . Output melting point: 108 to 110 °C
